- Experiment: qHTS Assay for Lipid Storage Modulators (AID 1519); also: % is scaled to controls: 0 for no effect and ±100 for the full control effect
- Setup Conditions: Drosophila S3 cells, BODIPY lipid droplet/cell ratio, laser cytometry; at 57.5 µM (top of the series); cells loaded with oleic acid
Results filed as inconclusive are left out. The source made the active and inactive calls. Calls follow the shape of the full dose curve.
Property Name: activity change, negative = inhibition

N#Cc1cccc(-c2nc3cnc(N4CCOCC4)nc3n(C3CC3)c2=O)c1: -2.2% (inactive)

Next, consider the following molecule.
Endpoint output: activity change, negative = inhibition of COc1cccc(-c2ccc3ncnc(NCc4cccs4)c3c2)c1 . Value?
-9.22% (inactive)

* * *

- Experiment: Validation of Assay for Modulators of Lamin A Splicing (AID 1459);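 also: cells exposed to compound for two days before reading; 0% is about no effect; ratio rise marks activators and ratio drop marks inhibitors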
- Setup Conditions: Lamin A splicing dual RFP/GFP fluorescence reporter; series mostly up to 9.22 µM
Inconclusive results are not listed. Activity calls are given as the source filed them. The call rests on the fitted dose curve; in most records, active means well fitted curve in the direction sought with a large enough effect in the signal ratio; inconclusive means small, poorly fitted or top-dose-only effect, or effect the other way, or a change in a side signal; inactive means no such curve, though single readings can be large or run the other way; the % refers to the signal ratio.
Property Name: outcome

CCSC(N)=Nc1ccc(C(F)(F)F)cc1: inactive
CNC(=O)[C@H]1O[C@@H](n2cnc3c(NCc4cccc(I)c4)ncnc32)[C@H](O)[C@H]1O: inactive
CNC(=O)[C@H]1O[C@@H](n2cnc3c(NCc4ccc(N)cc4)ncnc32)[C@H](O)[C@H]1O: inactive

Data provenance: PubChem BioAssay (NCATS)
